FYI, the data here is from patent US20070065439A1.

# STUDY_SYSTEM: T1, Recombinant human IL-1beta (rhIL-1b) (human, UniProt P01584 117-269)
# T1 construct: R&D Systems Cat. No. 201-LB/CF; also called IL-1β; human IL-1β
# EXPERIMENT: Biacore high-res, mAb amine-coupled, 23C
# kon listing for each entry below

BINDER: 9.19.1 (antibody, human IgG4, V domains shown, lambda; also called mAb 9.19.1) VH: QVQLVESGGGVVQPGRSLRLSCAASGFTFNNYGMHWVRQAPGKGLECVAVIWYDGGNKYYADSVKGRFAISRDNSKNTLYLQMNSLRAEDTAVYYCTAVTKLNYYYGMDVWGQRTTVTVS VL: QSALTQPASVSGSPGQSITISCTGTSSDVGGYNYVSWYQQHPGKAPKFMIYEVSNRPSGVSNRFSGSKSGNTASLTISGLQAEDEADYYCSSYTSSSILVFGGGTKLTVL
SCALE_UNIT: M⁻¹ s⁻¹
kon: 727000
--
BINDER: 6.33.1 (antibody, human IgG4, V domains shown, lambda; also called mAb 6.33.1) VH: QVQLVESGGGVVQPGRSLRLSCAASGFTFSVYGMHWVRQAPGKGLEWVAVIWYDGSNKYYADSVKGRFTISRDNSKNTLYLQMNSLRAEDTAVYYCAREKSSGWFFDYWGQGTLVTVSS VL: QSALTQPASVSGSPGQSITISCTGTSSDVGSYNLVSWYQQHPGKAPKLMIYEVSKRPSGISNRFSGSKSGNTASLTISGLQAEDEADYYCCSYAGNSIWVFGGGTKLTVL
SCALE_UNIT: M⁻¹ s⁻¹
kon: 1.1e+06
--
BINDER: 8.18.1 (antibody, human IgG4, V domains shown, lambda; also called mAb 8.18.1) VH: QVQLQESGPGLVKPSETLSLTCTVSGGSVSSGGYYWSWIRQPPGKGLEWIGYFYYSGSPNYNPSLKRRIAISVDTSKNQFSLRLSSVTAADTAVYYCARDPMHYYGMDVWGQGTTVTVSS VL: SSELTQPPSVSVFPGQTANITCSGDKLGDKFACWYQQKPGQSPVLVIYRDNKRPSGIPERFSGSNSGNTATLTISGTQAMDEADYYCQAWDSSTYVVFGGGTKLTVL
SCALE_UNIT: M⁻¹ s⁻¹
kon: 485000
--
BINDER: 5.5.1 (antibody, IgG4, V domains shown, lambda; also called mAb 5.5.1; Ab 5.5.1) VH: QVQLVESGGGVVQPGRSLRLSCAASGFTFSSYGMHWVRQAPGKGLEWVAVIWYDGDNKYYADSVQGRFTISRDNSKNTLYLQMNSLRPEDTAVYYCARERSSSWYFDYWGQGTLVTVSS VL: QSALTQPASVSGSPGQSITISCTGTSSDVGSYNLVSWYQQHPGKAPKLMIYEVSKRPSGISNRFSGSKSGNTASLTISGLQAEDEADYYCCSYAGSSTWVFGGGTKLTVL
SCALE_UNIT: M⁻¹ s⁻¹
kon: 1.57e+07
